assay: Plasma clearance in male Wistar-Han rat at 0.4 mg/kg, iv; type: ADME, organism-based; set-up: dose 0.4 mg/kg, route intravenous
Where a SMILES comes first, the peptide text is derived from it. [ ]: non-standard residue; d: D form. NMeY = CN[C@@H](Cc1ccc(O)cc1)C(=O)O; NMeT = CN[C@H](C(=O)O)[C@@H](C)O; dNMeL = CN[C@H](CC(C)C)C(=O)O

{"molecule": "CC(C)C[C@@H]1NC(=O)[C@H](Cc2ccc(O)cc2)N(C)C(=O)[C@H]2CCCN2C(=O)[C@H](CC(C)C)NC(=O)[C@H]([C@@H](C)O)N(C)C(=O)[C@@H](CC(C)C)N(C)C1=O (cyclo(L[dNMeL][NMeT]L[dP][NMeY]))", "clearance (mL/min/kg)": 63.6}
